Reference for the values: patent US20220251194A1

TGT: T1, polyhistidine-tagged human PD-1 (hPD1-His, 98AFK) (human, UniProt Q15116 25-167, limits assumed)
T1 construct: also called human PD1-His; Human PD-1-His
METHOD_SUMMARY: SPR (Biacore T200), mAb captured on anti-Fc chip; reference Mouse 08A
# note: exactly 0.8 is not below, so it is NOT MET; use MET for KD (REF)/KD strictly under it

BINDER	GROUP_LABEL
Mouse 08A N59E (antibody, mouse IgG1, kappa, V domains shown, Mouse IgG1 / kappa; also called 39AFL; Mouse x [PD-1_H] mAb (Clone 1.08 N59E) IgG1 / Kappa) VH: QVQLQQPGAELVKPGASVKLSCKASGYTFTSYYLYWMKQRPGQGLEWIGGVNPSNGGTEFSEKFKSKATLTVDKSSSTAYMQLSSLTSEDSAVYYCTRRDSNYDGGFDYWGQGTTLTVSS VL: DIVLTQSPTSLAVSLGQRATISCRASKSVSTSGFSYLHWYQQKPGQPPKLLIFLASNLESGVPARFSGSGSGTDFTLNIHPVEEEDAATYYCQHSWELPLTFGAGTKLELKR	MET
Mouse 08A N59Q (antibody, mouse IgG1, kappa, V domains shown, Mouse IgG1 / kappa; also called 38AFL; Mouse x [PD-1_H] mAb (Clone 1.08 N59Q) IgG1 / Kappa) VH: QVQLQQPGAELVKPGASVKLSCKASGYTFTSYYLYWMKQRPGQGLEWIGGVNPSNGGTQFSEKFKSKATLTVDKSSSTAYMQLSSLTSEDSAVYYCTRRDSNYDGGFDYWGQGTTLTVSS VL: DIVLTQSPTSLAVSLGQRATISCRASKSVSTSGFSYLHWYQQKPGQPPKLLIFLASNLESGVPARFSGSGSGTDFTLNIHPVEEEDAATYYCQHSWELPLTFGAGTKLELKR	MET
Humanized 08A IgG4 Fab 100 S61N G56A (antibody, V domains shown, also called 25AVE) VH: EVQLVQSGAEVKKPGASVKVSCKASGYTFTSYYLYWVRQAPGQGLEWIGGVNPSNAGTNFNEKFKSRVTLTVDTSISTAYMELSRLRSDDTAVYYCTRRLSHYDGGFDYWGQGTTVTVSS VL: DIVMTQTPLSLSVTPGQPASISCRASKSVSTSGFSYLHWYLQKPGQPPQLLIFLSKYRSSGVPDRFSGSGSGTDFTLKISRVEAEDVGVYYCSQAYHLPLTFGQGTKLEIKR	NOT MET
Humanized 08A IgG4 (antibody, V domains shown, IgG4 S228P / kappa; also called 73AGG; Humanized x [PD-1_H] mAb (08A/HuPD1A-11 S228P) IgG4 / Kappa) VH: EVQLVQSGAEVKKPGASVKVSCKASGYTFTSYYLYWVRQAPGQGLEWIGGVNPSNGGTNFSEKFKSRVTLTVDTSISTAYMELSRLRSDDTAVYYCTRRDSNYDGGFDYWGQGTTVTVSS VL: DIVMTQTPLSLSVTPGQPASISCRASKSVSTSGFSYLHWYLQKPGQPPQLLIFLASNLESGVPDRFSGSGSGTDFTLKISRVEAEDVGVYYCQHSWELPLTFGQGTKLEIKR	NOT MET
